Listing of entries alongside the reported IC50.
system: NF-κB; assay: NF-κB assay: THP1-NF-κB-LUC cells, LPS-stimulated secreted luciferase; type: cell-based; settings: THP1-NF-κB-LUC cells; compounds 2 hours before LPS (10 ng/mL) for 18 hours; secreted luciferase; read-out: IC50 (NF-κB assay)

{"columns": ["molecule", "recorded metric", "assay value"],
 "data": [
  ["CCC1Oc2cc(S(=O)(=O)Nc3cccc(F)c3)c(Br)cc2NC1=O (stereo not drawn)", "IC50", "0.1 to 1 µM"]
]}

Need IC50 of CCOc1ccc(NS(=O)(=O)c2cc3c(cc2Cl)NC(=O)C(C)O3)cc1 (stereo not drawn) , thanks. 0.1 to 1 µM

"CCOc1ccccc1NS(=O)(=O)c1cc2c(cc1C)NC(=O)CO2" ? > 10 µM

"O=C1COc2cc(S(=O)(=O)Nc3ccc(C(F)(F)F)cc3Cl)c(Br)cc2N1" ? 1 to 10 µM

"CC(=O)c1cccc(NS(=O)(=O)c2cc3c(cc2C)NC(=O)CO3)c1" ? < 0.1 µM

"COc1cc2c(=O)c(S(=O)(=O)c3ccccc3)cn(Cc3cccc(Cl)c3)c2cc1OC" ? > 10 µM

CCC1Oc2cc(S(=O)(=O)NCc3ccc(F)cc3F)c(Br)cc2NC1=O (stereo not drawn) ? > 10 µM

"Cc1ccc(C)c(NS(=O)(=O)c2cc3c(cc2C)NC(=O)CO3)c1" ? > 10 µM

CC1Oc2c(cc(Br)cc2S(=O)(=O)Nc2ccc(F)cc2F)N(C)C1=O (stereo not drawn) ? < 0.1 µM

----------
Listing of entries alongside the reported pIC50.
Tested on: TNF release
Assay: TNF assay: TNF release from LPS-stimulated human PBMCs (TNF ELISA)
Type: cell-based
Conditions: PBMC; human PBMCs; compounds 2 hours before LPS (10 ng/ml) for 18 hours; supernatant TNF ELISA; read-out: IC50 (TNF assay)
Protocol: 25k THP1-NF-κB-LUC cells were dispensed into 384 well plate (per well). Cells were treated with compounds with various concentrations for 2 hours before addition of LPS (10 ng/mL) for 18 hours. Secreted luciferase activity were measured using quant-luc reagents (1 bag of luc reagent dilute to 40 mL, use 10 μL per well). Data were normalized to vehicle control and graphed. Compound IC50 towards inhibiting NF-κB were determined through Prism. […]
pIC50: −log10 of the molar value.

Some compounds with recorded pIC50:
{"columns": ["compound", "pIC50"],
 "data": [
  ["O=C1COc2cc(S(=O)(=O)Nc3ccc(Cl)cc3)c(Cl)cc2N1", "< 5.00"],
  ["CC1Oc2cc(S(=O)(=O)Nc3ccc(F)cc3F)c(Cl)cc2NC1=O (stereo not shown)", "< 5.00"],
  ["O=C1COc2c(cc(Br)cc2S(=O)(=O)NCc2ccc(F)cc2F)N1", "< 5.00"],
  ["CC1Oc2c(cc(Br)cc2S(=O)(=O)NCc2ccc(C(F)(F)F)cc2)NC1=O (stereo not shown)", "< 5.00"]
]}

Need pIC50 of CC1Oc2c(cc(Br)cc2S(=O)(=O)NCCc2ccc(OC(F)(F)F)cc2)NC1=O (stereo not shown) , thanks. < 5.00

"O=c1c(S(=O)(=O)c2ccc(F)cc2)c(O)[nH]c2ncccc12" ? < 5.00

CC1Oc2cc(S(=O)(=O)Nc3ccc(Cl)cc3)c(Cl)cc2NC1=O (stereo not shown) ? < 5.00

CC1Oc2cc(S(=O)(=O)Nc3ccc(F)cc3F)c(Br)cc2N(C)C1=O (stereo not shown) ? 5.00 to 6.00

"CS(=O)(=O)c1cc2c(c(S(=O)(=O)Nc3ccc(C#N)cc3)c1)OCC(=O)N2" ? < 5.00

"O=c1[nH]ccc2cc(Sc3ccc(F)cc3)ccc12" ? < 5.00

CC1Oc2c(cc(Cl)cc2S(=O)(=O)Nc2cccc(Cl)c2)NC1=O (stereo not shown) ? 5.00 to 6.00

CCCNS(=O)(=O)c1cc2c(cc1Br)NC(=O)C(CC)O2 (stereo not shown) ? < 5.00

"CC(C)c1ccc(NS(=O)(=O)c2cc(Cl)cc3c2OCC(=O)N3)cc1" ? < 5.00

CCc1ccc(NS(=O)(=O)c2cc(Br)cc3c2OC(CC)C(=O)N3C)cc1 (stereo not shown) ? 5.00 to 6.00

O=C1COc2c(cc(Br)cc2S(=O)(=O)NC2CCC(O)CC2)N1 (stereo not shown) ? < 5.00

CCC1Oc2cc(S(=O)(=O)NCCc3ccc(OC(F)(F)F)cc3)c(Br)cc2NC1=O (stereo not shown) ? < 5.00

CCC1Oc2c(cc(Br)cc2S(=O)(=O)Nc2ccc(C)cc2)NC1=O (stereo not shown) ? 5.00 to 6.00

CC(C)CNS(=O)(=O)c1cc2c(cc1Br)NC(=O)C(C)O2 (stereo not shown) ? < 5.00

CCC1Oc2c(cc(Br)cc2S(=O)(=O)Nc2ccccc2)N(C)C1=O (stereo not shown) ? 5.00 to 6.00

----------
Listing of entries alongside the reported pIC50.
system: TNF release; test: TNF assay: TNF release from LPS-stimulated human PBMCs (TNF ELISA); assay type: cell-based; settings: PBMC; human PBMCs; compounds 2 hours before LPS (10 ng/ml) for 18 hours; supernatant TNF ELISA; read-out: IC50 (TNF assay)
pIC50: −log10 of the molar value.

{"columns": ["molecule", "pIC50"],
 "data": [
  ["CCC1Oc2c(cc(Cl)cc2S(=O)(=O)Nc2ccc(F)cc2Cl)NC1=O (stereo not drawn)", "< 5.00"]
]}

Need pIC50 of CCc1ccc(NS(=O)(=O)c2cc(Br)cc3c2OC(CC(C)C)C(=O)N3)cc1 (stereo not drawn) , thanks. 5.00 to 6.00

CC1Oc2c(cc(Br)cc2S(=O)(=O)Nc2ccc(Cl)cc2)N(C)C1=O (stereo not drawn) ? < 5.00

CC1Oc2cc(S(=O)(=O)Nc3ccc(F)cc3Cl)c(Cl)cc2NC1=O (stereo not drawn) ? < 5.00

"CS(=O)(=O)c1cc2c(c(S(=O)(=O)Nc3ccc(Cl)cc3)c1)OCC(=O)N2" ? < 5.00

----------
tested on: TNF release; assay: TNF assay: TNF release from LPS-stimulated human PBMCs (TNF ELISA); format: cell-based; conditions: PBMC; human PBMCs; compounds 2 hours before LPS (10 ng/ml) for 18 hours; supernatant TNF ELISA; read-out: IC50 (TNF assay)
recorded metric: IC50

Some compounds with recorded IC50:
{"columns": ["compound", "assay value"],
 "data": [
  ["CCC1Oc2c(cc(Br)cc2S(=O)(=O)Nc2ccc(F)cc2F)N(C)C1=O (stereo not drawn)", "> 10 µM"],
  ["CCc1ccc(NS(=O)(=O)c2cc(Cl)cc3c2OC(CC)C(=O)N3)cc1 (stereo not drawn)", "1 to 10 µM"]
]}

Need IC50 of CCC1Oc2cc(S(=O)(=O)Nc3ccccc3)c(Br)cc2N(C)C1=O (stereo not drawn) , thanks. 1 to 10 µM

"CCS(=O)(=O)c1cc2c(c(S(=O)(=O)Nc3ccc(F)cc3F)c1)OCC(=O)N2" ? > 10 µM

CC(C)NS(=O)(=O)c1cc(Cl)cc2c1OC(C)C(=O)N2 (stereo not drawn) ? > 10 µM

"Cc1c(Cl)cc2c(c1S(=O)(=O)Nc1ccc(Cl)cc1)OCC(=O)N2" ? > 10 µM

CCC1Oc2cc(S(=O)(=O)NCc3ccccc3)c(Br)cc2NC1=O (stereo not drawn) ? > 10 µM

CCC1Oc2c(cc(Cl)cc2S(=O)(=O)Nc2ccc(F)cc2)NC1=O (stereo not drawn) ? 1 to 10 µM

Cc1ccc(NS(=O)(=O)c2cc(Cl)cc3c2OC(C)C(=O)N3)cc1F (stereo not drawn) ? > 10 µM

----------
system: NF-κB; experiment: NF-κB assay: THP1-NF-κB-LUC cells, LPS-stimulated secreted luciferase; assay type: cell-based; details: THP1-NF-κB-LUC cells; compounds 2 hours before LPS (10 ng/mL) for 18 hours; secreted luciferase; read-out: IC50 (NF-κB assay)
Listing of entries alongside the reported IC50.

Some compounds with recorded IC50:
{"columns": ["compound", "IC50"],
 "data": [
  ["CC(C)CC1Oc2c(cc(Br)cc2S(=O)(=O)Nc2cccc(Cl)c2)NC1=O (stereo not drawn)", "< 0.1 µM"],
  ["N#Cc1ccc(S(=O)(=O)c2c[nH]c3ccc(F)cc3c2=O)cc1", "> 10 µM"],
  ["Cc1ccc(NS(=O)(=O)c2cc3c(cc2Cl)NC(=O)CO3)cc1Cl", "0.1 to 1 µM"]
]}

Need IC50 of "CCOc1ccc(NS(=O)(=O)c2cc3c(cc2Br)NC(=O)CO3)cc1" , thanks. > 10 µM

"CC(=O)Nc1ccc(NS(=O)(=O)c2cc3c(cc2C)NC(=O)CO3)cc1" ? > 10 µM

"COc1ccc(NS(=O)(=O)c2cc3c(cc2Br)NC(=O)CO3)cc1" ? 0.1 to 1 µM

"COc1ccc2[nH]cc(S(=O)(=O)c3ccc(C#N)cc3)c(=O)c2c1" ? > 10 µM

CC(C)CC1Oc2cc(S(=O)(=O)Nc3ccc(C(C)C)cc3)c(Br)cc2NC1=O (stereo not drawn) ? 1 to 10 µM

"O=C1COc2cc(S(=O)(=O)NCc3ccc(C(F)(F)F)cc3)c(Br)cc2N1" ? > 10 µM

These entries and their values trace back to patent US12606528B2.
